Catalogue of melting point readings, one per entry.

substance smiles: O=S(=O)(c1ccccc1)N1CCC(Nc2nc(OCC(F)(F)F)nc(N3CCCC3)n2)CC1
melting point: 212 to 213 °C

Req: Answer with the recorded melting point for the compound listed here: "Cc1nc2cccc3nc(SCCCCNS(=O)(=O)C(F)(F)F)c1n23"
Resp: 129 to 131 °C

Req: Answer with the recorded melting point for the compound listed here: "CNC(=C[N+](=O)[O-])N1CC1"
Resp: 118 to 119 °C

Req: Answer with the recorded melting point for the compound listed here: "Cn1nc(-c2ccccc2)nc1-c1ccncc1"
Resp: 132 to 134 °C

====

Catalogue of melting point readings, one per entry.

Req: Answer with the recorded melting point for the compound listed here: "CN1CCN(c2cccc3c2C[C@H](NC(=O)c2ccc(-c4ccc(O)cc4)cc2)CC3)CC1"
Resp: 261 to 262 °C

Req: Answer with the recorded melting point for the compound listed here: "O=C1c2ccc([N+](=O)[O-])cc2C(=O)N1C1CCN(Cc2ccccc2)CC1"
Resp: 240 to 242 °C

Req: Answer with the recorded melting point for the compound listed here: "Cc1cc2ccccc2n1Nc1ccncc1"
Resp: 75 to 78 °C

Req: Answer with the recorded melting point for the compound listed here: "COC(=O)CCC(=O)Oc1c(C)n(Cc2ccccc2)c2c(OCc3ccccc3)nncc12"
Resp: 189 to 190 °C
